Each entry below carries its reported pEC50.
tested on: SH-SY5Y; assay: Cytotoxicity against human SH-SY5Y cells expressing human SERT assessed as decrease in cell viability after 48 hrs neutral red dye assay; assay type: functional, cell-based
Conceptually, pEC50 converts a concentration in mol/L into minus its log10.

1) CSc1ccc(CC(Cc2ccc(SC)cc2)NC=O)cc1; 4.50
2) CCNC(Cc1ccc(SC)cc1)Cc1ccc(SC)cc1; 4.80

Now let's try a different one.
Measured pEC50 of NC(Cc1ccc2c(c1)OCO2)Cc1ccc2c(c1)OCO2 : 4.50

* * *

tested on: SH-SY5Y; assay: Antiproliferative activity against human SH-SY5Y cells after 24 hrs Alamar blue assay; format: functional, cell-based
Each entry below carries its reported pEC50.
Conceptually, pEC50 converts a concentration in mol/L into minus its log10.

Worked cases, answers included:
1. O=[N+]([O-])/C(=C\c1ccc(Cl)cc1)Cc1ccc(Cl)cc1Cl; 4.60
2. OC(Cc1ccc2c(c1)OCO2)Cc1ccc2c(c1)OCO2; 3.80
3. O=C(Cc1ccc2c(c1)OCO2)Cc1ccc2c(c1)OCO2; 3.60
4. CSc1ccc(CC(Cc2ccc(SC)cc2)NC(C)=O)cc1; 1.80
5. COc1ccc(CC(N)Cc2ccc(OC)cc2)cc1; 4.70
6. O=CNC(Cc1ccc2c(c1)OCO2)Cc1ccc2c(c1)OCO2; 3.65
7. CSc1ccc(/C=C(/Cc2ccc(SC)cc2)[N+](=O)[O-])cc1; 4.70
8. ON=C(Cc1ccc2c(c1)OCO2)Cc1ccc2c(c1)OCO2; 4.20
9. NC(Cc1ccc(Cl)cc1)Cc1ccc(Cl)cc1; 5.30
10. CSc1ccc(CC(N)Cc2ccc(SC)cc2)cc1; 4.90

Measured pEC50 of NC(Cc1ccc2c(c1)OCO2)Cc1ccc2c(c1)OCO2 : 4.50

Measured pEC50 of CSc1ccc(CC(Cc2ccc(SC)cc2)NC=O)cc1 : 4.50

// provenance: ChEMBL document CHEMBL1671778
